Molecular target: biotinylated labeled human GPC3 protein (produced in-house) (human, UniProt P51654 25-559, limits assumed, biotinylated (Dojindo, Cat. No. LK03); sites not stated)
Assay: ELISA, biotinylated human GPC3 protein
Below is a list of entries, each paired with its recorded OD450 at 0.02 nM value.
Answer format: numeric, OD450 implied, no suffix.

# example entries with known answers
hAb007LH1L1b (antibody, human IgG1, V domains shown, Humanized F3.81.19; VH H1 + VL L1b; expressed as human IgG1) VH: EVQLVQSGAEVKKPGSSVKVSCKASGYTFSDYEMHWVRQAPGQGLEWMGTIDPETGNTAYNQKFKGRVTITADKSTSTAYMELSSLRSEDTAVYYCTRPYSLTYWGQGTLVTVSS VL: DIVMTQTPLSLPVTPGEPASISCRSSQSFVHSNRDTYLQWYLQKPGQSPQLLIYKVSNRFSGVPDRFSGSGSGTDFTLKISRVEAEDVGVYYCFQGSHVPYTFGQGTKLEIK | 0.341
hAb005LH3L1b (antibody, human IgG1, V domains shown, Humanized F3.54.12; VH H3 + VL L1b; expressed as human IgG1) VH: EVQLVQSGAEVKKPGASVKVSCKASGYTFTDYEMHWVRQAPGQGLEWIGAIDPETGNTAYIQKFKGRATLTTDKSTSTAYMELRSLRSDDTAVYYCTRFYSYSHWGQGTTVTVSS VL: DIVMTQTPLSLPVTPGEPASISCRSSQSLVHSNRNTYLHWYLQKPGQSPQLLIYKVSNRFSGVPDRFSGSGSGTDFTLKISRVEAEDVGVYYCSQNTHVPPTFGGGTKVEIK | 0.426
hAb007LH2L1a (antibody, human IgG1, V domains shown, Humanized F3.81.19; VH H2 + VL L1a; expressed as human IgG1) VH: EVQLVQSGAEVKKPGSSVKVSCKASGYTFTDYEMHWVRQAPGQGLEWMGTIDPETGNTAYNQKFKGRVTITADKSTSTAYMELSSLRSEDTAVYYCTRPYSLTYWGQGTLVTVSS VL: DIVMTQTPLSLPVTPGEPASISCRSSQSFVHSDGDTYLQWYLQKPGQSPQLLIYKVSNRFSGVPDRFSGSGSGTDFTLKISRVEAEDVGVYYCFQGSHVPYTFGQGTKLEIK | 0.173
hAb007LH2L1b (antibody, human IgG1, V domains shown, Humanized F3.81.19; VH H2 + VL L1b; expressed as human IgG1) VH: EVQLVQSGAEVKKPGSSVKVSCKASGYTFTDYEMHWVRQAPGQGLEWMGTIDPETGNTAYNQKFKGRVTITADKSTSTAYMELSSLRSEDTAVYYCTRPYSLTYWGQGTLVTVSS VL: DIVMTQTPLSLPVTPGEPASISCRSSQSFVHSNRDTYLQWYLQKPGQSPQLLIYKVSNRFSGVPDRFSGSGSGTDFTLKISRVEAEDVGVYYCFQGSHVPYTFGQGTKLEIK | 0.297
hAb005LH3L1a (antibody, human IgG1, V domains shown, Humanized F3.54.12; VH H3 + VL L1a; expressed as human IgG1) VH: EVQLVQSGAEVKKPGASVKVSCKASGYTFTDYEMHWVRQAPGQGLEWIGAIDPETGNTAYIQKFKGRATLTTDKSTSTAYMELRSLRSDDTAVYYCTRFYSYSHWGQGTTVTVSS VL: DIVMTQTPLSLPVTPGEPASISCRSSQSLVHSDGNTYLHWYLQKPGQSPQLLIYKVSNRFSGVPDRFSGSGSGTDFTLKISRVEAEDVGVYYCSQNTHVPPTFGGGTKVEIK | 0.049

Prompt line: Dear colleague, please send me the reported OD450 at 0.02 nM for hAb003LH3L1 (antibody, human IgG1, V domains shown, Humanized F2.154.1; VH H3 + VL L1; expressed as human IgG1) VH: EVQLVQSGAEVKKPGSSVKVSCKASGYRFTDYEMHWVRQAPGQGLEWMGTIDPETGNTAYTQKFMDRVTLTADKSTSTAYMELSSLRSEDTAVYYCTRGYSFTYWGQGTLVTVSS VL: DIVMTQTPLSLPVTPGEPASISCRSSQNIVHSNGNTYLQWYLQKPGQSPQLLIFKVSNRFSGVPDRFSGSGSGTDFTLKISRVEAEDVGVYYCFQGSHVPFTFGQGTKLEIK when you can.
Response line: 0.915

Prompt line: Dear colleague, please send me the reported OD450 at 0.02 nM for hAb003LH3L1b (antibody, human IgG1, V domains shown, Humanized F2.154.1; VH H3 + VL L1b; expressed as human IgG1) VH: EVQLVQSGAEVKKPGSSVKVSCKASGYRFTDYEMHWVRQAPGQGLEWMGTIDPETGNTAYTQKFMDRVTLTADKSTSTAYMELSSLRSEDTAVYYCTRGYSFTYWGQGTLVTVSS VL: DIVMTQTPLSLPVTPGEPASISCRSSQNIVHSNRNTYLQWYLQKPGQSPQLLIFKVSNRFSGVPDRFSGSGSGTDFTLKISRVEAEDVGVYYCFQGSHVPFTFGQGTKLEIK when you can.
Response line: 1.08

Prompt line: Dear colleague, please send me the reported OD450 at 0.02 nM for hAb001H1L1a (antibody, human IgG1, V domains shown, Humanized F2.169.2; VH H1 + VL L1a; expressed as human IgG1) VH: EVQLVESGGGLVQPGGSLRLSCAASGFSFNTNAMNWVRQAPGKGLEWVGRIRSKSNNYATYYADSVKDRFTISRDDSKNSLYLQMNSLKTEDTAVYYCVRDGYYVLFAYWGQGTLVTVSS VL: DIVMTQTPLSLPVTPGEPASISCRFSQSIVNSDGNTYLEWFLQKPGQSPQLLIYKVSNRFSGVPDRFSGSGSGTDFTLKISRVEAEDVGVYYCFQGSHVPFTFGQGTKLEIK when you can.
Response line: 0.477

Prompt line: Dear colleague, please send me the reported OD450 at 0.02 nM for hAb006LH3L1a (antibody, human IgG1, V domains shown, Humanized F3.38.7; VH H3 + VL L1a; expressed as human IgG1) VH: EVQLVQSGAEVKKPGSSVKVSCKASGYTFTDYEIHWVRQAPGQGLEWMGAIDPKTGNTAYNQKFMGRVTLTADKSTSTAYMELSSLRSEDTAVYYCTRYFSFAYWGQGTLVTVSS VL: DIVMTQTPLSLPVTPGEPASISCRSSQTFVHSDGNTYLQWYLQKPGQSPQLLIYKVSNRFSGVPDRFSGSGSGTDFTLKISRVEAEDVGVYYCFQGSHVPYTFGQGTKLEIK when you can.
Response line: 0.087

Prompt line: Dear colleague, please send me the reported OD450 at 0.02 nM for hAb006LH1L1b (antibody, human IgG1, V domains shown, Humanized F3.38.7; VH H1 + VL L1b; expressed as human IgG1) VH: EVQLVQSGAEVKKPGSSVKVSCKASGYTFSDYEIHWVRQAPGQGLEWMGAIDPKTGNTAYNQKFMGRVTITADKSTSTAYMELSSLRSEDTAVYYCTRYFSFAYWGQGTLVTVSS VL: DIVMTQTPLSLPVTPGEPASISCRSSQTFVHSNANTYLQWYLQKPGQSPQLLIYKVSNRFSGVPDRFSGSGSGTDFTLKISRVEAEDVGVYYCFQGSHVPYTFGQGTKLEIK when you can.
Response line: 0.841
